- assayDetails: Influencing factor stability study on crystal forms (light, high temperature, high humidity, 30 days)
- Assay type: physicochemical
- conditionSummary: 60 °C, 14 days
quantityMeasured: Purity (%)

Purity (%) lookup needed for C=CC(=O)N1CCN2C(=O)c3cc(F)c(-c4ccc(F)c5sc(N)c(C#N)c45)c4c(Cl)nn(c34)CC[C@H]2C1 [crystal form G] , thanks.
98.1

Consider the compound C=CC(=O)N1CCN2C(=O)c3cc(F)c(-c4ccc(F)c5sc(N)c(C#N)c45)c4c(Cl)nn(c34)CC[C@H]2C1 [crystal form L] and give its measured Purity (%).
99.0

I'd like to know its Purity (%). The compound in question is C=CC(=O)N1CCN2C(=O)c3cc(F)c(-c4ccc(F)c5sc(N)c(C#N)c45)c4c(Cl)nn(c34)CC[C@H]2C1 [crystal form H]
98.2

Can you look up the measured Purity (%) of C=CC(=O)N1CCN2C(=O)c3cc(F)c(-c4ccc(F)c5sc(N)c(C#N)c45)c4c(Cl)nn(c34)CC[C@H]2C1 [crystal form M] for me?
99.1

----------
- assayDetails: Influencing factor stability study on crystal forms (light, high temperature, high humidity, 30 days)
- Type: physicochemical
- conditionSummary: 40 °C, 30 days
quantityMeasured: Color and state

Consider the worked cases shown below.
For C=CC(=O)N1CCN2C(=O)c3cc(F)c(-c4ccc(F)c5sc(N)c(C#N)c45)c4c(Cl)nn(c34)CC[C@H]2C1 [crystal form G] , what is its reported Color and state?
Off-white solid

Reported Color and state for C=CC(=O)N1CCN2C(=O)c3cc(F)c(-c4ccc(F)c5sc(N)c(C#N)c45)c4c(Cl)nn(c34)CC[C@H]2C1 [crystal form M] : what is it?
Off-white solid

Could you share which Color and state value was measured for C=CC(=O)N1CCN2C(=O)c3cc(F)c(-c4ccc(F)c5sc(N)c(C#N)c45)c4c(Cl)nn(c34)CC[C@H]2C1 [crystal form L] ?
Off-white solid

Please give the measured Color and state for this compound: C=CC(=O)N1CCN2C(=O)c3cc(F)c(-c4ccc(F)c5sc(N)c(C#N)c45)c4c(Cl)nn(c34)CC[C@H]2C1 [crystal form C]
Off-white solid

What Color and state value was documented for this compound, C=CC(=O)N1CCN2C(=O)c3cc(F)c(-c4ccc(F)c5sc(N)c(C#N)c45)c4c(Cl)nn(c34)CC[C@H]2C1 [crystal form F] ?
Off-white solid

***
Name the reported Color and state value associated with the compound C=CC(=O)N1CCN2C(=O)c3cc(F)c(-c4ccc(F)c5sc(N)c(C#N)c45)c4c(Cl)nn(c34)CC[C@H]2C1 [crystal form H]
Off-white solid

----------
- assayDetails: Influencing factor stability study on crystal forms (light, high temperature, high humidity, 30 days)
- Format: physicochemical
- conditionSummary: 75% RH, 7 days
quantityMeasured: Color and state

Record excerpt, results attached:
Bench note: what Color and state did C=CC(=O)N1CCN2C(=O)c3cc(F)c(-c4ccc(F)c5sc(N)c(C#N)c45)c4c(Cl)nn(c34)CC[C@H]2C1 [crystal form M] show?
Off-white solid

Form field: reported Color and state of C=CC(=O)N1CCN2C(=O)c3cc(F)c(-c4ccc(F)c5sc(N)c(C#N)c45)c4c(Cl)nn(c34)CC[C@H]2C1 [crystal form G]
Off-white solid

Could you share which Color and state value was measured for C=CC(=O)N1CCN2C(=O)c3cc(F)c(-c4ccc(F)c5sc(N)c(C#N)c45)c4c(Cl)nn(c34)CC[C@H]2C1 [crystal form N] ?
Off-white solid

May I ask what Color and state has been recorded for C=CC(=O)N1CCN2C(=O)c3cc(F)c(-c4ccc(F)c5sc(N)c(C#N)c45)c4c(Cl)nn(c34)CC[C@H]2C1 [crystal form H] ?
Off-white solid

---
Recorded Color and state for C=CC(=O)N1CCN2C(=O)c3cc(F)c(-c4ccc(F)c5sc(N)c(C#N)c45)c4c(Cl)nn(c34)CC[C@H]2C1 [crystal form L] , please?
Off-white solid

----------
- assayDetails: Influencing factor stability study on crystal forms (light, high temperature, high humidity, 30 days)
- Type: physicochemical
- conditionSummary: Light exposure (4500 Lux), 7 days
quantityMeasured: Purity (%)

Please look up its Purity (%): C=CC(=O)N1CCN2C(=O)c3cc(F)c(-c4ccc(F)c5sc(N)c(C#N)c45)c4c(Cl)nn(c34)CC[C@H]2C1 [crystal form M]
99.2

Requested field: Purity (%). Item: C=CC(=O)N1CCN2C(=O)c3cc(F)c(-c4ccc(F)c5sc(N)c(C#N)c45)c4c(Cl)nn(c34)CC[C@H]2C1 [crystal form L]
98.6

Reported Purity (%) for C=CC(=O)N1CCN2C(=O)c3cc(F)c(-c4ccc(F)c5sc(N)c(C#N)c45)c4c(Cl)nn(c34)CC[C@H]2C1 [crystal form G] : what is it?
98.5

What value of Purity (%) has been recorded for this entry: C=CC(=O)N1CCN2C(=O)c3cc(F)c(-c4ccc(F)c5sc(N)c(C#N)c45)c4c(Cl)nn(c34)CC[C@H]2C1 [crystal form H]
97.8

----------
- assayDetails: Influencing factor stability study on crystal forms (light, high temperature, high humidity, 30 days)
- Type: physicochemical
- conditionSummary: 60 °C, 30 days
quantityMeasured: Purity (%)

So what does the record say about Purity (%) for C=CC(=O)N1CCN2C(=O)c3cc(F)c(-c4ccc(F)c5sc(N)c(C#N)c45)c4c(Cl)nn(c34)CC[C@H]2C1 [crystal form H] ?
97.7

Which Purity (%) value belongs to C=CC(=O)N1CCN2C(=O)c3cc(F)c(-c4ccc(F)c5sc(N)c(C#N)c45)c4c(Cl)nn(c34)CC[C@H]2C1 [crystal form L] ?
98.9

What does the data say about its Purity (%)? Entry: C=CC(=O)N1CCN2C(=O)c3cc(F)c(-c4ccc(F)c5sc(N)c(C#N)c45)c4c(Cl)nn(c34)CC[C@H]2C1 [crystal form C]
97.5

----------
- assayDetails: Influencing factor stability study on crystal forms (light, high temperature, high humidity, 30 days)
- Assay type: physicochemical
- conditionSummary: 75% RH, 14 days
quantityMeasured: Purity (%)

Consider the molecule shown here: C=CC(=O)N1CCN2C(=O)c3cc(F)c(-c4ccc(F)c5sc(N)c(C#N)c45)c4c(Cl)nn(c34)CC[C@H]2C1 [crystal form N] What is its recorded Purity (%)?
99.1

Tell me the measured Purity (%) of C=CC(=O)N1CCN2C(=O)c3cc(F)c(-c4ccc(F)c5sc(N)c(C#N)c45)c4c(Cl)nn(c34)CC[C@H]2C1 [crystal form G] , please.
98.5

# input molecule: C=CC(=O)N1CCN2C(=O)c3cc(F)c(-c4ccc(F)c5sc(N)c(C#N)c45)c4c(Cl)nn(c34)CC[C@H]2C1 [crystal form H] ; wanted: its Purity (%)
98.3

# lookup: Purity (%) of C=CC(=O)N1CCN2C(=O)c3cc(F)c(-c4ccc(F)c5sc(N)c(C#N)c45)c4c(Cl)nn(c34)CC[C@H]2C1 [crystal form M]
99.2

Field request: Purity (%) | item: C=CC(=O)N1CCN2C(=O)c3cc(F)c(-c4ccc(F)c5sc(N)c(C#N)c45)c4c(Cl)nn(c34)CC[C@H]2C1 [crystal form L]
99.1

----------
- assayDetails: Influencing factor stability study on crystal forms (light, high temperature, high humidity, 30 days)
- Assay type: physicochemical
- conditionSummary: 40 °C, 7 days
quantityMeasured: Purity (%)

Fill blank: measured Purity (%) of the compound C=CC(=O)N1CCN2C(=O)c3cc(F)c(-c4ccc(F)c5sc(N)c(C#N)c45)c4c(Cl)nn(c34)CC[C@H]2C1 [crystal form H] is ____.
98.2

Look up Purity (%) for this compound: C=CC(=O)N1CCN2C(=O)c3cc(F)c(-c4ccc(F)c5sc(N)c(C#N)c45)c4c(Cl)nn(c34)CC[C@H]2C1 [crystal form M]
99.1

What does the data say about its Purity (%)? Entry: C=CC(=O)N1CCN2C(=O)c3cc(F)c(-c4ccc(F)c5sc(N)c(C#N)c45)c4c(Cl)nn(c34)CC[C@H]2C1 [crystal form L]
99.1

Requested field: Purity (%). Item: C=CC(=O)N1CCN2C(=O)c3cc(F)c(-c4ccc(F)c5sc(N)c(C#N)c45)c4c(Cl)nn(c34)CC[C@H]2C1 [crystal form G]
98.2

----------
- assayDetails: Influencing factor stability study on crystal forms (light, high temperature, high humidity, 30 days)
- Assay type: physicochemical
- conditionSummary: Light exposure (4500 Lux), 30 days
quantityMeasured: Purity (%)

State the recorded Purity (%) for this entry: C=CC(=O)N1CCN2C(=O)c3cc(F)c(-c4ccc(F)c5sc(N)c(C#N)c45)c4c(Cl)nn(c34)CC[C@H]2C1 [crystal form C]
97.5

Look at this compound and give its reported Purity (%). C=CC(=O)N1CCN2C(=O)c3cc(F)c(-c4ccc(F)c5sc(N)c(C#N)c45)c4c(Cl)nn(c34)CC[C@H]2C1 [crystal form M]
99.0

Any idea what its Purity (%) is? The compound is C=CC(=O)N1CCN2C(=O)c3cc(F)c(-c4ccc(F)c5sc(N)c(C#N)c45)c4c(Cl)nn(c34)CC[C@H]2C1 [crystal form H]
94.0

Field request: Purity (%) | item: C=CC(=O)N1CCN2C(=O)c3cc(F)c(-c4ccc(F)c5sc(N)c(C#N)c45)c4c(Cl)nn(c34)CC[C@H]2C1 [crystal form L]
98.3

Which measured Purity (%) value corresponds to C=CC(=O)N1CCN2C(=O)c3cc(F)c(-c4ccc(F)c5sc(N)c(C#N)c45)c4c(Cl)nn(c34)CC[C@H]2C1 [crystal form G] ?
98.3

Data request, read-out Purity (%), for C=CC(=O)N1CCN2C(=O)c3cc(F)c(-c4ccc(F)c5sc(N)c(C#N)c45)c4c(Cl)nn(c34)CC[C@H]2C1 [crystal form F]
97.7
